A short record of IC50 observed with Genome polyprotein [2420-3010] (HCV) follows.
Sequence (P26663 2420-3010): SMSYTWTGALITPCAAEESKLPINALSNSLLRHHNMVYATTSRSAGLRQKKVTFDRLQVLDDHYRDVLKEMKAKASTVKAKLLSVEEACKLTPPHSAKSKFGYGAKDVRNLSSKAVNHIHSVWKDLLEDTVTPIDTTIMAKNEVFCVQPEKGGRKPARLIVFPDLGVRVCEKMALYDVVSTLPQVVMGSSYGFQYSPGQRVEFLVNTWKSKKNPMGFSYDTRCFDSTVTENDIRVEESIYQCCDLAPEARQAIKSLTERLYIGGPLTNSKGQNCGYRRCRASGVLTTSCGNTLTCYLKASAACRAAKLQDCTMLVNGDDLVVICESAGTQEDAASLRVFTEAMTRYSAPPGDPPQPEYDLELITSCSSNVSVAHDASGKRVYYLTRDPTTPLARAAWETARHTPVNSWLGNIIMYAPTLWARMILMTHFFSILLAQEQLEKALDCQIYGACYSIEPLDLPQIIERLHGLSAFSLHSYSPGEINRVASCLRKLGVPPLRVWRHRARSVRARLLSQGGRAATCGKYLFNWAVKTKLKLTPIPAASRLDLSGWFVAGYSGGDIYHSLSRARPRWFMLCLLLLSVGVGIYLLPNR
The response must be a number in µM with no trailing unit.

These recorded examples may help you get a feel for the data.
compound: C[C@@]1(N)[C@H](O)[C@@H](COP(=O)(O)OP(=O)(O)OP(=O)(O)O)O[C@H]1c1ccc2c(N)ncnn12 [US9457039, 24]
IC50, µM: 1.1
--
compound: C[C@@]1(N)[C@H](O)[C@@H](COP(=O)(O)OP(=O)(O)OP(=O)(O)O)O[C@H]1c1cnn2c(N)ncnc12 [US9457039, 25]
IC50, µM: 51
--
compound: C[C@@]1(N=[N+]=[N-])[C@H](O)[C@@H](COP(=O)(O)OP(=O)(O)OP(=O)(O)O)O[C@H]1c1cnc2c(N)ncnn12 [US9457039, 22]
IC50, µM: 0.93

Fill in the recorded IC50 for this compound, with Genome polyprotein [2420-3010] (HCV) as test system: C[C@@]1(N)[C@H](O)[C@@H](COP(=O)(O)OP(=O)(O)OP(=O)(O)O)O[C@H]1c1cnc2c(N)ncnn12 [US9457039, 23]
6.7
